Where do the numbers come from? From PubChem BioAssay AID1362.

Here the recorded inhibition is given for each entry.
# Method: growth inhibition of WT strain, primary screen, mitochondrial fusion inhibitor project, WT and mutant strains, chemical genetic (AID 1362)
# Cond: mitochondrial fusion phenotypic screen, WT strain, growth inhibition; at 10 µM; stronger effect = higher value
Screen size: about 190,000 compounds; about 4,000 (2.1%) were called active. What follows is part of a selection rich in actives, with near analogues and random picks from the rest.
Report only the number, with the unit % understood.

Recorded inhibition, per entry:
1) CC(C)(C)c1ccc(Oc2ccc(N)cc2)cc1 : 54.8
2) CC(C)Cn1c(CN(Cc2ccccc2)Cc2ccccc2)nc2c1c(=O)n(C)c(=O)n2C : 85.5
3) CCOC(=O)C1(Cc2cccc(OC)c2)CCN(Cc2csc(C(C)=O)c2)CC1 : 25.6
4) CCOc1cc(N2CCOCC2)c(OCC)cc1NC(=O)c1cc(C)nc2ccccc12 : -14.2
5) COc1ccc(C(=O)N2CC3(C)CC2CC(C)(C)C3)cc1OC (stereo unspecified) : -9.9
6) CCc1ccc(Oc2nc([N+](=O)[O-])nn2C)cc1 : 3.07
7) CC1CCN(C(=S)c2cccc([N+](=O)[O-])c2)CC1 : 7.85
8) CC1(c2cccc([N+](=O)[O-])c2)CC(C)(C)N(C(=O)c2ccccc2)c2ccccc21 (stereo unspecified) : 75.8

q: Quick one: give measured inhibition for `N/C(=N\OC(=O)Nc1ccc(Cl)c(Cl)c1)c1ncc(C(F)(F)F)cc1Cl`
a: 80.3

q: Read the entry `COC(=O)c1sccc1NC(=O)c1csc2c1CCCC2` and write its reported inhibition.
a: 71.3

q: Give me measured inhibition, please, for this compound: `CC(C)CCn1c(CN(C)Cc2ccccc2)nc2c1c(=O)n(C)c(=O)n2C`
a: 1.88
